- Experimental protocol: In Vitro Mouse liver S9 Metabolic Stability Assay (Example 1D)
- Assay type: in vitro ADME
- Test context: CD-1 mouse liver S9, 1 μM compound, 1 mg/mL S9 protein, 37° C., NADPH regenerating system, UDPGA, PAPS
Parameter: Mouse S9 Stability: % Remaining After 60 Minutes (%)

Consider the following illustrative entries.
Structure string: CN(C)c1cnn2c(NCCc3c[nH]c4ccccc34)cc(-c3cncc(F)c3)nc12
Recorded number: 0
--
Structure string: Cc1[nH]c2c(F)cccc2c1CCNc1cc(-c2cncc(F)c2)nc2c(C)cnn12
Recorded number: 0

a: CON(C)C(=O)c1cnn2c(NCCc3c[nH]c4ccccc34)cc(-c3cncc(F)c3)nc12
b: CC(C)c1cnn2c(NCCc3c[nH]c4ccccc34)nc(-c3cncc(F)c3)nc12
Which of the two gives a bigger number for Mouse S9 Stability: % Remaining After 60 Minutes: a or b ? Write down the label attached to your selection.
b
